Source listed as patent US12331044B2.

pIC50 values, listed per item
- Study System: human HDAC8 (Homo sapiens (Human), UniProt Q9BY41)
- Sequence (Q9BY41 whole entry): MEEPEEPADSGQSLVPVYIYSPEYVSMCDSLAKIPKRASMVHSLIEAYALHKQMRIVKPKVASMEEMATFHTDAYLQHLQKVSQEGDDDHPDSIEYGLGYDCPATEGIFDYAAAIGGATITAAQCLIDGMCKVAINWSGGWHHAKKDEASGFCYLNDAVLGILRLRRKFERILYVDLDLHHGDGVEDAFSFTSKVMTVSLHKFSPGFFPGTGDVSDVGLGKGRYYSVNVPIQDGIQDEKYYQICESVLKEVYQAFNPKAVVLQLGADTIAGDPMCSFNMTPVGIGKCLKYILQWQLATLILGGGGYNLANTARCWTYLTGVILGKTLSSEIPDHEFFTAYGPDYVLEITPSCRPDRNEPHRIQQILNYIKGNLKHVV
- Assay Explanation: HDAC8 inhibition assay (modified FLUOR DE LYS, 384-well)
- Format: biochemical
- Test Parameters: […] enzyme, 200 μM substrate BML-KI178, 3 h pre-incubation; read-out: HDAC8 IC50
By convention, pIC50 is the negative base-10 log of a molar concentration.

Identify measured pIC50 corresponding to Cc1ccc2cc(-c3c[nH]c([C@H](CCCCCC(=O)c4ccon4)NC(=O)[C@H]4CC45CCN(C)CC5)n3)ccc2n1
8.24

// Input: COc1cc2nc(C)ccc2cc1-c1cnc([C@H](CCCCCC(=O)c2ccon2)NC(=O)CN(C)C)[nH]1 . Output its pIC50 only.
7.85

Could you please provide reported pIC50 for COc1cc2nc(C)ccc2cc1-c1cnc([C@H](CCCCCC(=O)c2ccon2)NC(=O)C2CN(C)C2)[nH]1 ? Thanks!
8.52

Read the entry COc1cc2nc(C)ccc2cc1-c1cnc([C@H](CCCCCC(=O)c2ncco2)NC(=O)Cn2cccn2)[nH]1 and write its reported pIC50.
7.15

Specify reported pIC50 for the molecule shown: COc1nc2ccccc2cc1-c1cnc([C@H](CCCCCC(=O)c2ncco2)NC(=O)c2nc3ccccc3o2)[nH]1
6.78

----------
- Study System: human HDAC1 (Homo sapiens (Human), UniProt Q13547)
- Sequence (Q13547 whole entry): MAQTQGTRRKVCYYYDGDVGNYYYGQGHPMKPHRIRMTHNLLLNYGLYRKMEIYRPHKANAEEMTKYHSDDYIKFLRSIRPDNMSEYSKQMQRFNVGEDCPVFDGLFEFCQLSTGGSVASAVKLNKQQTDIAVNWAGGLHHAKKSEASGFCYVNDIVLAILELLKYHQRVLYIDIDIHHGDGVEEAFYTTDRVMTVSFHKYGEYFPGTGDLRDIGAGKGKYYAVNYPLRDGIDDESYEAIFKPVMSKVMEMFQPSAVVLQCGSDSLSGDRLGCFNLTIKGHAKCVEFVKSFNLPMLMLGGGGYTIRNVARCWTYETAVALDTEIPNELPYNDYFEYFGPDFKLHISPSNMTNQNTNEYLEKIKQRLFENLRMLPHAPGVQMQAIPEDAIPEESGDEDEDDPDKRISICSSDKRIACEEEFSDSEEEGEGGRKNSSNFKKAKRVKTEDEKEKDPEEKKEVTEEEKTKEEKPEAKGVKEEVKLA
- Assay Explanation: biochemical
In this scheme, each record receives a class according to its IC50; the ranges are c1 (below 2 nM), c2 (2 nM to below 3 nM), c3 (3 nM or more)

Here are 3 compounds together with their reported answers.
Smiles Repr	Cat
CCn1ccc2cc(-c3c[nH]c([C@@H](N)CCCCCC(=O)c4ncco4)n3)ccc2c1=O	c2
CN[C@@H](CCCCCC(=O)c1ncco1)c1ncc(-c2cc3ccc(=O)n(C)c3cc2OC)[nH]1	c2
COc1cc2nc(C)ccc2cc1-c1c[nH]c([C@@H](N)CCCCCC(=O)c2ccon2)n1	c1

Which category fits this record: COc1cc(-c2cnc([C@@H](N)CCCCCC(=O)c3ncco3)[nH]2)c(F)cn1
c3

----------
Overview of recorded pIC50 for various compounds
- Study System: UniProt:Q92769
- Sequence (Q92769 whole entry): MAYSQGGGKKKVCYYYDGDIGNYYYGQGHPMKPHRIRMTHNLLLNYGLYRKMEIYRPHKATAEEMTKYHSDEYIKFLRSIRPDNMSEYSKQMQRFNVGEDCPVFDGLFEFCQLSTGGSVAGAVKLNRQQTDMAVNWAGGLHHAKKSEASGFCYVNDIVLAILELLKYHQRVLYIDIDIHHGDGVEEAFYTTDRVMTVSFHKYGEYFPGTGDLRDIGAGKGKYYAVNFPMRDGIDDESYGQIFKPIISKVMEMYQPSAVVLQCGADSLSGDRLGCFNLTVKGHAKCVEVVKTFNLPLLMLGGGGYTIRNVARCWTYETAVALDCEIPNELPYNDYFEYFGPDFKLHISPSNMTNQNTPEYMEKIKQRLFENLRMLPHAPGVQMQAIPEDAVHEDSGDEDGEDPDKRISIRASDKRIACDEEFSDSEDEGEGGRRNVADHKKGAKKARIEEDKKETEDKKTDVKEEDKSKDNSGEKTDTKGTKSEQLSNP
- Assay Explanation: HDAC2 inhibition assay (modified FLUOR DE LYS, 384-well)
- Type: biochemical
- Test Parameters: […] enzyme, 40 μM substrate BML-KI104, 3 h pre-incubation; read-out: HDAC2 IC50
# pIC50: negative log10 of molar concentration; output just the value

Compound	pIC50
COc1nc2ccccc2cc1-c1cnc([C@H](CCCCCC(=O)c2ncco2)NC(=O)c2nc3ccccc3o2)[nH]1	7.82
Cc1ccc2cc(-c3cnc(C(CCCCCC(=O)c4ncco4)NC(=O)[C@H]4CC45CCN(C)CC5)o3)ccc2n1 (stereo partly shown)	8.28
CN1CC(C(=O)N[C@@H](CCCCCC(=O)c2ncco2)c2ncc(-c3cc(OC4CCC4)ccc3F)[nH]2)C1	7.89
COc1cc2nc(C)ccc2cc1-c1cnc([C@H](CCCCCC(=O)c2ncco2)NC(=O)Cn2cccn2)[nH]1	8.26
N[C@H](CCCCCC(=O)c1ccon1)c1cc(-c2ccc(F)cc2)on1	6.38
COc1cc2nc(C)ccc2cc1-c1cnc([C@H](CCCCCC(=O)c2ncco2)NC(=O)[C@H]2CC23CCN(C)CC3)o1	8.60
COc1cc2nc(C)ccc2cc1-c1cnc([C@H](CCCCCC(=O)c2ncco2)NC(=O)C2(C)CCCCO2)[nH]1 (stereo partly shown)	7.77
COc1cc2nc(C)ccc2cc1-c1cnc([C@H](CCCCCC(=O)c2ncco2)NC(=O)C2COCCO2)[nH]1 (stereo partly shown) [Example 173]	8.49

Give me measured pIC50, please, for this compound: COc1cc2nc(C)ccc2cc1-c1cnc([C@H](CCCCCC(=O)c2ncco2)NC(=O)c2cc3n(n2)CCCO3)[nH]1
8.08

Give pIC50 for COc1cc2nc(C)ccc2cc1-c1cnc([C@H](CCCCCC(=O)c2ncco2)NC(=O)CN2CCOCC2=O)[nH]1
8.25

----------
Form: system (human HDAC1 (Homo sapiens (Human), UniProt Q13547)), quantity (IC50), values below.
Output spec: scalar in nM, unitless text.

Compound	Study System	Val
COc1cc2nc(C)ccc2cc1-c1cnc([C@H](CCCCCC(=O)c2cc(C)on2)NC(=O)C2CC23CCN(C)CC3)[nH]1 (stereo partly shown)	human HDAC1 (Homo sapiens (Human), UniProt Q13547)	0.18
COc1cc2nc(C)ccc2cc1-c1cnc([C@H](CCCCCC(=O)c2ncco2)NC(=O)C2COCCO2)[nH]1 (stereo partly shown) [Example 173]	human HDAC1 (Homo sapiens (Human), UniProt Q13547)	1.1

Look up and report IC50, with human HDAC1 (Homo sapiens (Human), UniProt Q13547) as system, for COc1cc2nc(C)ccc2cc1-c1cnc([C@H](CCCCCC(=O)c2ncco2)NC(=O)c2cc3ncccn3n2)[nH]1
1.7

Report IC50 on human HDAC1 (Homo sapiens (Human), UniProt Q13547) for this entry: COc1cc2nc(C)ccc2cc1-c1cnc([C@H](CCCCCC(=O)c2cc(C)on2)NC(=O)C2CN(C)C2)[nH]1
0.23

----------
- Study System: human HDAC8 (Homo sapiens (Human), UniProt Q9BY41)
- Assay Explanation: HDAC8 inhibition assay (modified FLUOR DE LYS, 384-well)
- Assay type: biochemical
- Test Parameters: […] enzyme, 200 μM substrate BML-KI178, 3 h pre-incubation; read-out: HDAC8 IC50
Measured IC50 of individual entries
Just the number plus its unit, please.

Reference set, count: 2
Molecule	Measurement Kind	Val
COc1cc2nc(C)ccc2cc1-c1cnc([C@H](CCCCCC(=O)c2ncco2)NC(=O)C2COC(c3ccccc3)CO2)[nH]1 (stereo partly drawn)	IC50	490 nM
COc1cc2nc(C)ccc2cc1-c1cnc([C@H](CCCCCC(=O)c2cc(C)on2)NC(=O)C2CC23CCN(C)CC3)[nH]1 (stereo partly drawn)	IC50	120 nM

Recall and state the measured IC50 for CN1CCC2(CC1)C[C@@H]2C(=O)N[C@@H](CCCCCC(=O)c1ccon1)c1[nH]c(-c2ccccc2F)nc1Cl .
23 nM

----------
- Study System: HDAC6 (Homo sapiens (Human), UniProt Q9UBN7)
- Sequence (Q9UBN7 whole entry): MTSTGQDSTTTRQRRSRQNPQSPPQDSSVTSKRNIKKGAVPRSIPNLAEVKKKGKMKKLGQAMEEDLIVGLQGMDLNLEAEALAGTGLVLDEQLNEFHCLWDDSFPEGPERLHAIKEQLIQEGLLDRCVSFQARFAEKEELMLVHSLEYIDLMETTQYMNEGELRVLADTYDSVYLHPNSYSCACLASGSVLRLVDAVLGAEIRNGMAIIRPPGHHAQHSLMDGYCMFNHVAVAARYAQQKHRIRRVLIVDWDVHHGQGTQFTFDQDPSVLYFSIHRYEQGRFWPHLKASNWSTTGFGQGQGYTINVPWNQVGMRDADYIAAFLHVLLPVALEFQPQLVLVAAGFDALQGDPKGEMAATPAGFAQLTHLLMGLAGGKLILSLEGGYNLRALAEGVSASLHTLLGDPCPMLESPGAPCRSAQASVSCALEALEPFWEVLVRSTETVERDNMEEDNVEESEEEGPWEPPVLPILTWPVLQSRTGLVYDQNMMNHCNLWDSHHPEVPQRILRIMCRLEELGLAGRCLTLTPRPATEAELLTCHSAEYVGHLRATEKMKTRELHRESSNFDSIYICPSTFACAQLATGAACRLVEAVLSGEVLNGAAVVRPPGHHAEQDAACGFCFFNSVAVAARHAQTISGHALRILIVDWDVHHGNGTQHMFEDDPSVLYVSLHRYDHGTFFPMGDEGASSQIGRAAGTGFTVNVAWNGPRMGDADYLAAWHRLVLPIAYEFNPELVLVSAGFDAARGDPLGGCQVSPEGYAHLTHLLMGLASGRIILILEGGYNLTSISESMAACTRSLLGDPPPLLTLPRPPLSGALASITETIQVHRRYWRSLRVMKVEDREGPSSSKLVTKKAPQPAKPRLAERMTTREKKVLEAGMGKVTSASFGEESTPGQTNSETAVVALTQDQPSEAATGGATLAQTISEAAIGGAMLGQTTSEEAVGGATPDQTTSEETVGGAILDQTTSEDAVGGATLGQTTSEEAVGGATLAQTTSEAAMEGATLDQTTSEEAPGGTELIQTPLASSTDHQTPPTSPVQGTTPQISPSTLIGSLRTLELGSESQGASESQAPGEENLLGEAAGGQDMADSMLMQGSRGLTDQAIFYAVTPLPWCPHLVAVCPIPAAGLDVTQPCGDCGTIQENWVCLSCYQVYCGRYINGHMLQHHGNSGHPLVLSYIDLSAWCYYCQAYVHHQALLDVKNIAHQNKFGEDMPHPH
- Assay Explanation: biochemical
Measurement Kind: log10(IC50) (log10 of the value in nM)
Form field - Quantity: IC50; Unit: nM; Scale: log10

Give recorded log10(IC50). COc1cc2nc(C)ccc2cc1-c1cnc([C@H](CCCCCC(=O)c2ncco2)Nc2ncccn2)[nH]1
2.40

Find the measured log10(IC50) of CN(C)CC(=O)N[C@@H](CCCCCC(=O)c1ncco1)c1ncc(-c2ccc3nccnc3c2)[nH]1 and report it.
2.85

Consider the compound COc1cc2nc(C)ccc2cc1-c1cnc([C@H](CCCCCC(=O)c2ncco2)NC(=O)CN(C)C)[nH]1 . State its measured log10(IC50).
3.23

Please list log10(IC50) recorded for the compound COc1cc2nc(C)ccc2cc1-c1cnc([C@H](CCCCCC(=O)c2ccon2)NC(=O)[C@H]2CC23CCN(C)CC3)[nH]1
3.40

Identify measured log10(IC50) corresponding to CCN1CCC2(CC1)C[C@@H]2C(=O)N[C@@H](CCCCCC(=O)c1ncco1)c1[nH]c(-c2ccc(F)cc2)nc1Cl
4.28

Return log10(IC50) for the following compound: COc1cc2nc(C)ccc2cc1-c1cnc([C@H](CCCCCC(=O)c2ncco2)NC(=O)C2CCC3(CC2)CN(C)C3)[nH]1
2.83

Input COc1cc2nc(C)ccc2cc1-c1cnc([C@H](CCCCCC(=O)c2ncco2)NC(=O)C2CN(C)C2)[nH]1 , output reported log10(IC50).
3.11

----------
For human HDAC3/SMRT heterodimer (Homo sapiens (Human), UniProt O15379), measured pIC50 is reported for the entries below.
Lab note: report pIC50 as minus log10 of the concentration in molar units, number only.

The cases that follow already have their pIC50 on record.
Compound	pIC50
COc1cc2c(ccc(=O)n2C)cc1-c1cnc([C@H](CCCCCC(=O)c2ccon2)NC(=O)CN(C)C)[nH]1 [Example 93]	9.34
COc1nc2ccccc2cc1-c1cnc([C@H](CCCCCC(=O)c2ncco2)NC(=O)CN(C)C)[nH]1 [Example 41]	9.15
Cc1cc(C(=O)CCCCC[C@H](N)c2nc(-c3ccccc3F)c[nH]2)no1 [Example 45]	7.72
COc1cc(O[C@H]2C[C@H](OC)C2)cc(-c2cnc([C@@H](N)CCCCCC(=O)c3ncco3)[nH]2)c1F [Example 144]	8.19
CCN(CC)CC(=O)N[C@@H](CCCCCC(=O)c1ncco1)c1ncc(-c2cc3ccccc3nc2OC)[nH]1 [Example 50]	8.89
COc1cc2nc(C)ccc2cc1-c1cnc([C@H](CCCCCC(=O)c2ncco2)NC(=O)c2cc3ncccn3n2)[nH]1 [Example 161]	9.24

Output measured pIC50 for this item: NC(CCCCCC(=O)c1ccon1)c1cnn(-c2ccc(F)cc2)c1 (centres unmarked) [Example 122]
6.24

Return reported pIC50. Input compound: N[C@@H](CCCCCC(=O)c1ncco1)c1ncc(-c2cc(C(F)(F)F)ccc2F)[nH]1 [Example 137]
7.35
